Assay: Mycobacterium tuberculosis growth inhibition, primary screen (AID 1259343)
Details: at 10 µM
Screen size: about 6,200 compounds; about 2,900 (47%) were called active. Cut-off read from the data, not from the text of the source: active = inhibition above about 50%; inactive = the rest. The set was probably picked from earlier hits. This is one part of the list.
Tick one outcome: active, inactive

Solved entries (count: 6):
{"columns": ["MOLECULE", "CLASS_ASSIGNMENT"],
 "data": [
  ["O=C(NC1CC1c1ccccc1)C1(c2ccccc2)CCC1 (centres undefined)", "inactive"],
  ["CCc1cc(C=NC2CCCCC2)c(O)s1", "active"],
  ["O=C(O)c1cncnc1/C=C/c1ccccc1Br", "inactive"],
  ["Cc1ccc(C#N)cc1S(=O)(=O)Nc1nnc(C(C)C)s1", "inactive"],
  ["CCOc1ccc(OCCCOc2ccc(C)cc2)cc1", "inactive"],
  ["CN(Cc1cccc(C#N)c1)C(=O)c1cc2c(s1)CCCCCC2", "inactive"]
]}

How was `O=C(NCC(F)(F)F)c1cc(-c2ccc(Cl)cc2)n[nH]1` classified in this test?
active

Quick one: `O=C(Nc1ccccc1-c1cn2c(CN3CCNCC3)csc2n1)c1cnc2ccccc2n1`
active

###

# inhibition listing for each entry below
Experiment: Mycobacterium tuberculosis growth inhibition, primary screen (AID 1259343)
Conditions: at 10 µM, active compounds read high
Screen size: about 6,200 compounds; about 2,900 (47%) were called active. The set was probably picked from earlier hits. Some of the results follow.
Field format: number, assumed %, no unit text.

{"columns": ["COMPOUND", "QUANTITY_UNIT", "inhibition"],
 "data": [
  ["CCCCc1ccc(NC(=O)CNc2ccccc2C(C)=O)cc1", "%", 90.7]
]}

// returns reported inhibition for input `c1ccc(OCc2noc(COc3ccc4ncccc4c3)n2)cc1`
64.9

Quick one: `c1ccc2c(OCCCCCn3ccnc3)cccc2c1`
100

Quick one: `COc1cccc(Cn2c(=O)c(C(=O)N3CCCC3)nn(-c3cc(C)cc(C)c3)c2=O)c1`
3.71

Quick one: `CN(Cc1ccc2nsnc2c1)Cc1nc(COc2ccccc2)no1`
65.2

Quick one: `CCc1ccc(CN(C)Cc2nc(COc3ccccc3)no2)nc1`
93.7

Quick one: `Cc1coc2c1C(=O)C(=O)c1c-2ccc2c1CCCC2(C)C`
58.8

Quick one: `CCc1noc(CSC2=Nc3ccccc3CS2)n1`
23

Quick one: `CCCc1cc(=O)[nH]c(-n2nc(C)cc2NC(=O)Cc2ccc(OC)c(OC)c2)n1`
98.9

Quick one: `COc1ccc(-c2nc(CN(C)Cc3ccc4nsnc4c3)c(C)o2)c(C)c1C`
12.7

Quick one: `O=C(NCc1ccc(S(=O)(=O)N2CCCCC2)cc1)NCc1cccc(C(F)(F)F)c1`
91.4

Quick one: CCOC(=O)c1ccc(NC(=O)N2CCN(C(=O)c3cc4ccoc4n3Cc3cccc(OC)c3)CC2C)cc1 (stereo not drawn)
85.9

Quick one: `c1ccc(OCc2noc(CN3CCN(c4ccccn4)CC3)n2)cc1`
43

Quick one: `Fc1ccc(N=c2scc(-c3ccc(OC(F)F)cc3)n2C2CC2)cc1`
53.9

Quick one: CCC(C)c1ccc(NC(=O)CNc2ccc(F)c(C(=O)OC)c2)cc1 (stereo not drawn)
-5.36

Quick one: `Cc1nc(NC(=O)c2cccc(Br)c2)oc1C`
94.3

Quick one: `CCc1cc(=O)[nH]c(-n2nc(C)cc2NC(=O)Cc2ccc(OC)c(OC)c2)n1`
48

Quick one: COc1ccccc1Cn1c(C(=O)N2CCN(C(=O)C(Cl)c3ccccc3)C(C)C2)cc2ccsc21 (stereo not drawn)
35.9

Quick one: FC(F)Oc1ccc(-c2csc(=Nc3cccnc3)n2CC2CCCO2)cc1 (stereo not drawn)
38.5

Quick one: `CN(CC(=O)c1cccc(Br)c1)C1CCCCC1`
13.2

Quick one: `CCc1ccc(NC(=O)CNc2ccc(F)c(F)c2F)cc1`
96.5

Quick one: CN(Cc1nc(COc2ccccc2)no1)CC1Cc2ccccc2O1 (stereo not drawn)
53.6

Quick one: `CCc1ccc(NCC(=O)Nc2ccc(I)cc2C)cc1`
53.6

###

Test: Mycobacterium tuberculosis growth inhibition, primary screen (AID 1259343)
Conditions: at 10 µM
In all, about 6,200 compounds went through this assay and about 2,900 (47%) were called active. No stated cut-off is given here; in the data, active means inhibition above about 50%; inactive means the rest. The set was probably picked from earlier hits. This is one part of the list.
Tick one outcome: t = active, f = inactive

How was `O=C(c1csc(COc2ccc(F)cc2F)n1)N1CCCC1` classified in this test?
f

Quick one: CC(Oc1ccccc1)C(=O)Nn1cnc2c(cnn2-c2ccc(F)cc2)c1=O (stereo not drawn)
t

Quick one: `O=C(Nc1ncnc2c1CCC2)c1nc2ccccc2s1`
t

Quick one: COc1ccc(CCc2nnc(CCC(=O)N3CCC(c4ccc(F)cc4)C3)o2)cc1 (stereo not drawn)
f

###

Experiment: Mycobacterium tuberculosis growth inhibition, primary screen (AID 1259343)
Details: at 10 µM
Screen size: about 6,200 compounds; about 2,900 (47%) were called active. Rule as the data show it: active = inhibition above about 50%; inactive = the rest. The set was probably picked from earlier hits. This is one part of the list.
Tick one outcome: active, inactive

Solved entries (count: 5):
{"columns": ["COMPOUND", "CLASS_ASSIGNMENT"],
 "data": [
  ["O=c1c(NCCc2ccccc2)nccn1-c1ccccc1", "inactive"],
  ["CCOc1ccc(Br)c(C=Nc2ccc3oc(=O)ccc3c2)c1O", "active"],
  ["Cc1ccc(NC2=CC(=O)c3sc(C)nc3C2=O)cc1", "active"],
  ["O=c1[nH]c2c(Cl)c(Cl)c(Cl)cc2o1", "inactive"],
  ["Cc1cc(NC(=O)CON=C2CCN(C(=O)C3CC3)CC2)ccc1Br", "active"]
]}

// switching to the query compound
How was Cc1ccc(-c2nc(C)sc2CC(=O)NC(C)C2CC2)cc1 (stereo unspecified) classified in this test?
inactive

###

Experiment: Mycobacterium tuberculosis growth inhibition, primary screen (AID 1259343)
Details: at 10 µM, active compounds read high
Screen size: about 6,200 compounds; about 2,900 (47%) were called active. So high a share suggests a set chosen from earlier hits. This is one part of the list.
# inhibition listing for each entry below
Field format: number, assumed %, no unit text.

{"columns": ["COMPOUND", "ATTRIBUTE_MEASURED", "VALUE_MEASURED"],
 "data": [
  ["Cc1ccc(NS(=O)(=O)c2ccc(F)cc2[N+](=O)[O-])c(F)c1", "inhibition", 50.2],
  ["CC(C)C(C)NC(=O)Nc1nc(-c2ccccc2)ns1 (stereo unspecified)", "inhibition", 83.1],
  ["COc1ccc(NC(=O)Nc2cccc(-c3ccc(N4CCCC4)nn3)c2)cc1", "inhibition", 66.1],
  ["COCC1(NC(=O)Nc2nc(-c3ccccc3)ns2)CCCC1", "inhibition", 5.18],
  ["COc1ccccc1N1CCN(Cn2nc(C3COc4ccccc4O3)oc2=S)CC1 (stereo unspecified)", "inhibition", 49.9]
]}

// returns reported inhibition for input Cc1ccc(C(=O)N=c2sccn2Cc2ccc(C(=O)NC(C)c3ccccc3)cc2)cc1 (stereo unspecified)
-8.44

Quick one: COc1ccc(NC(=O)N2CCCC(C(=O)c3cccc(OC(C)C)c3)C2)cc1OC (stereo unspecified)
19

Quick one: `O=S(=O)(Nc1ccc(F)c(F)c1F)c1ccc(Cl)cc1F`
79.2

###

Experiment: Mycobacterium tuberculosis growth inhibition, primary screen (AID 1259343)
Conditions: at 10 µM, active compounds read high
About 2,900 (47%) of roughly 6,200 compounds were called active. The set was probably picked from earlier hits. The list shows a part of the results.
# inhibition listing for each entry below
Field format: number, assumed %, no unit text.

Use the examples below as a reference point.
{"columns": ["MOLECULE", "inhibition [%]"],
 "data": [
  ["CCCCOc1ccc(C(=O)Nc2cc(C)nn2-c2nc(CCC)cc(=O)[nH]2)cc1", 101],
  ["CCCCc1ccc(-c2csc(NC(=O)OC)c2C(N)=O)cc1", 2.76],
  ["CCCc1cc(=O)[nH]c(-n2nc(C)cc2NC(=O)c2ccc(OC)cc2)n1", -40.9],
  ["CC1(C)C(C=C(Cl)Cl)C1C(=O)OCc1cccc(Oc2ccccc2)c1 (stereo unspecified)", -12.7],
  ["CCN=c1scc(-c2ccc(F)cc2)n1N=Cc1ccc2c(c1)OCCO2", 4]
]}

// returns reported inhibition for input `CCCCN(C)C(=O)c1cc(-c2ccc(C)s2)[nH]n1`
25.6

Quick one: `CCN=c1scc(-c2ccc3c(c2)OCCO3)n1N=Cc1cc(C)ccc1C`
87.5

Quick one: `Nc1c([N+](=O)[O-])ccc2c1=[N+]([O-])C1(CCCCC1)[N+]=2[O-]`
101

Quick one: `C=CCN(CC=C)C(=O)CSc1nc(N)cc(=O)[nH]1`
-27.6

Quick one: `Cc1ccc(-c2cc(C(=O)O)n[nH]2)s1`
99.8

Quick one: `Fc1ccc(Nc2nnc(-c3ccc(Br)s3)o2)c(F)c1`
87.9
